System: A549
Test: NCI tumour cell line growth inhibition, 48 h
Calls of active or inactive are those of the source. No stated cut-off is given here; in the data, active = GI50 up to about 1.1 µM and inactive = higher. Non-standard residues stand in square brackets, D forms with d. Residues, ends and D or L forms follow the SMILES beside them. *: point of attachment. NMeF = CN[CH](Cc1ccccc1)C(=O)O; NMeV = CN[CH](C(=O)O)C(C)C; Boc = CC(C)(C)OC(=O)*
Classes used: active, inactive

>>> discrete_label("CN(CCNC(=O)c1nn(C)c2c1Cc1ccccc1-2)CCNC(=O)c1nn(C)c2c1Cc1ccccc1-2")
"inactive"
>>> discrete_label("COc1cc2c(c(OC)c1OC)C(=O)[C@@H](O)[C@H]2NC(N)=O")
"inactive"
>>> discrete_label("O=C(O)C(Cc1c[nH]cn1)N1C(=O)c2ccccc2C1=O (centres undefined)")
"inactive"
>>> discrete_label("COC(=O)C(C(=O)C(=O)Nc1cccc(OC)c1)c1cnc2ccccc2n1 (centres undefined)")
"inactive"
>>> discrete_label("O=c1c2cccc3cccc(c4n1CCN=4)c32")
"inactive"
>>> discrete_label("O=S(=O)(CC1=NC2C=CC=CC2N=C1)NCc1ccccc1 (centres undefined)")
"inactive"
>>> discrete_label("CCCCCNC(=O)OC1CCn2c1nc1c2C(=O)C(C)=C(N2CC2)C1=O (centres undefined)")
"active"
>>> discrete_label("COc1ccc(Nc2nnc(CCCCCCCCc3nnc(Nc4ccc(OC)cc4)o3)o2)cc1")
"inactive"
>>> discrete_label("CC(C)OP(=O)(OC(C)C)/C(=N/Nc1ccc([N+](=O)[O-])cc1)Nc1ccccc1")
"inactive"
>>> discrete_label("N#CC12C(=O)N3C(=NC(c4ccccc4)NC3c3ccccc3)C1(C#N)C(c1ccccc1)NC1=C2CCCC1 (centres undefined)")
"inactive"
>>> discrete_label("CC(C)(Oc1ccc2c(=O)cc(-c3ccccc3)oc2c1)C(=O)Nc1c(Cl)cccc1Cl")
"inactive"
>>> discrete_label("CC(C)C(NC(=O)OC(C)(C)C)C(=O)N(C)C(Cc1ccccc1)C(=O)N(C)C(C(=O)O)C(C)C (stereo not drawn) (Boc-Val-[NMeF]-[NMeV]-OH; configuration not given here)")
"inactive"
>>> discrete_label("Nc1ncnc2c1ncn2C1OC(CO)C(O)C(O)C1O (centres undefined)")
"inactive"
>>> discrete_label("CCOC(=O)c1cc(=O)c2cccc3c2n1CCS3")
"inactive"

* * *

Test system: TK-10
Experiment: NCI tumour cell line growth inhibition, 48 h
Calls of active or inactive are those of the source. Cut-off read from the data, not from the text of the source: active = GI50 up to about 1.1 µM and inactive = higher.
RECORDED_METRIC: GI50

>>> result("CN(Cc1cc(C(C)(C)C)cc(Br)c1O)Cc1cc(C(C)(C)C)cc(Br)c1O")
"2.17 µM (inactive)"
>>> result("O=C1C=C(c2c(-c3ccccc3)[nH]c3ccccc23)C(=O)N1c1ccccc1")
"12.7 µM (inactive)"
>>> result("COc1cccc2c(=O)oc(-c3ccccc3C)nc12")
"> 100 µM (inactive)"
>>> result("O=C1C=CC(=O)N1c1ccc2c(c1)Cc1cc(NC(=O)C(F)(F)F)ccc1-2")
"3 µM (inactive)"
>>> result("CC(C)(Oc1ccc2c(=O)cc(-c3ccccc3)oc2c1)C(=O)Nc1c(Cl)cccc1Cl")
"> 100 µM (inactive)"
>>> result("CC1OC2OC3C(OCC(O)C3O)OC(=O)[C@]34CCC(C)(C)CC3C3=CCC5[C@@]6(C)C[C@H](O)[C@H](OC7OC(CO)C(O)C(O)C7OC7OCC(OC(=O)CC(C)(O)CC(=O)OC1C(OC1OC(CO)C(O)C(O)C1O)C2O)C(O)C7O)[C@@](C)(CO)C6CC[C@@]5(C)[C@]3(C)CC4 (some centres not stated)")
"10.8 µM (inactive)"
>>> result("CCN(CC)CCSc1nc(-c2c[nH]c3nc(C)ccc3c2=O)n[nH]1")
"> 100 µM (inactive)"
>>> result("C=C[C@H]1CN2CCc3c([nH]c4cc(O)ccc34)[C@@H]2C[C@@H]1C[C@H]1c2[nH]c3ccccc3c2CCN1C")
"8.57 µM (inactive)"
>>> result("CCOC(=O)c1ccc(/N=c2\\oc3ccc(OC)cc3cc2-c2nc3ccccc3[nH]2)cc1")
"> 100 µM (inactive)"
>>> result("CCC1(C)NN=c2s/c(=C/c3ccc(OC)cc3)c(=O)n2N1 (configuration not stated)")
"> 100 µM (inactive)"
>>> result("CC(C)(CCC(C)(C)N1OC1c1ccccc1)N1OC1c1ccccc1 (configuration not stated)")
"22.8 µM (inactive)"
>>> result("O=C(c1cc2c(c3ccccc13)NC1(CCCCC1)N=C2C(F)(F)F)C(F)(F)F")
"4.01 µM (inactive)"
>>> result("CCN1C(=O)C(=C/C=C/C=C2/N(C)c3ccccc3C2(C)C)C(=O)N(CC)C1=S")
"> 100 µM (inactive)"
>>> result("Cc1ccc(S(=O)(=O)NC(=O)NC(Cc2c[nH]c3ccccc23)C(=O)O)cc1 (configuration not stated)")
"> 100 µM (inactive)"
>>> result("CC(C)OP(=O)(OC(C)C)/C(=N/Nc1ccc([N+](=O)[O-])cc1)Nc1ccccc1")
"12.4 µM (inactive)"
>>> result("Cn1nc(S(N)(=O)=O)s/c1=N/S(=O)(=O)c1ccc(N)cc1")
"> 100 µM (inactive)"
>>> result("Cc1cc(S(=O)(=O)[N-]/C(=N/S(=O)(=O)c2ccc(Cl)cc2)[n+]2ccc(N(C)C)cc2)c(SCC(=O)O)cc1Cl")
"86.5 µM (inactive)"
>>> result("Cc1ccc(S(=O)(=O)N/N=C2\\C=CC3(CC2)C(=O)N(I)c2ccccc23)cc1 (configuration not stated)")
"> 100 µM (inactive)"
>>> result("COc1ccc(CC2=NCCc3cc(OC)c(OC)cc32)cc1Br")
"50 µM (inactive)"
>>> result("Cc1ccc(NC(=O)C(=O)CC(=O)c2ccccc2)cc1C")
"> 100 µM (inactive)"
>>> result("CC1=N[C@@](C)(C2CC3C=CC2C3=O)COC1=O (some centres not stated)")
"> 100 µM (inactive)"
>>> result("O=C1C2CC=CCC2C(=O)N1n1c(Cc2ccccc2)n[nH]c1=O (configuration not stated)")
"> 100 µM (inactive)"
>>> result("CCC(O)c1ccc(/N=C/c2ccccc2O)cc1 (configuration not stated)")
"> 100 µM (inactive)"
>>> result("COc1ccc(/N=C\\c2ccc(N(CCC#N)CCC#N)cc2)cc1")
"64.1 µM (inactive)"
>>> result("O=C(O)CCSC(=S)Nc1ccc([N+](=O)[O-])cc1")
"51.8 µM (inactive)"
>>> result("Clc1ccc(COc2ccccc2/C=N/c2c(-c3ccco3)nc3ccccn23)c(Cl)c1")
"36.2 µM (inactive)"
>>> result("CC1=C(/C=C/Cl)CC(Cl)C(C)(Cl)C1 (configuration not stated)")
"> 100 µM (inactive)"

All figures here come from ChEMBL document CHEMBL1201862.
